Listed below: IC50 values for each entry.
System: HT-29
Assay: Cytotoxicity against human HT-29 cells assessed as inhibition of cell viability incubated for 72 hrs by celltiter-blue cell viability assay
Format: functional, cell-based
Conditions: HT-29, 72 h

{"compound": "CC(=O)O[C@H]1C(=O)[C@@]2(C)[C@H]([C@H](OC(=O)c3ccccc3)[C@]3(O)C[C@H](OC(=O)[C@H](O)[C@@H](NC(=O)c4ccccc4)c4ccccc4)C(C)=C1C3(C)C)[C@]1(OC(C)=O)CO[C@@H]1C[C@@H]2O [PACLITAXEL]", "IC50": "3.4 nM"}
{"compound": "CO[C@H]1C[C@H](O[C@H]2CC[C@@]3(C)[C@@H](C2)C[C@@H]2O[C@]24[C@@H]3[C@H](OC(C)=O)C(=O)[C@]2(C)[C@@H](C3=CC(=O)OC3)CC[C@]42O)O[C@@H](C)[C@@H]1OC(C)=O", "IC50": "> 10000 nM"}
